target: hERG (KCNH2) (Homo sapiens); test: Inhibition of human ERG at 10 uM
Sequence (Q12809 whole entry): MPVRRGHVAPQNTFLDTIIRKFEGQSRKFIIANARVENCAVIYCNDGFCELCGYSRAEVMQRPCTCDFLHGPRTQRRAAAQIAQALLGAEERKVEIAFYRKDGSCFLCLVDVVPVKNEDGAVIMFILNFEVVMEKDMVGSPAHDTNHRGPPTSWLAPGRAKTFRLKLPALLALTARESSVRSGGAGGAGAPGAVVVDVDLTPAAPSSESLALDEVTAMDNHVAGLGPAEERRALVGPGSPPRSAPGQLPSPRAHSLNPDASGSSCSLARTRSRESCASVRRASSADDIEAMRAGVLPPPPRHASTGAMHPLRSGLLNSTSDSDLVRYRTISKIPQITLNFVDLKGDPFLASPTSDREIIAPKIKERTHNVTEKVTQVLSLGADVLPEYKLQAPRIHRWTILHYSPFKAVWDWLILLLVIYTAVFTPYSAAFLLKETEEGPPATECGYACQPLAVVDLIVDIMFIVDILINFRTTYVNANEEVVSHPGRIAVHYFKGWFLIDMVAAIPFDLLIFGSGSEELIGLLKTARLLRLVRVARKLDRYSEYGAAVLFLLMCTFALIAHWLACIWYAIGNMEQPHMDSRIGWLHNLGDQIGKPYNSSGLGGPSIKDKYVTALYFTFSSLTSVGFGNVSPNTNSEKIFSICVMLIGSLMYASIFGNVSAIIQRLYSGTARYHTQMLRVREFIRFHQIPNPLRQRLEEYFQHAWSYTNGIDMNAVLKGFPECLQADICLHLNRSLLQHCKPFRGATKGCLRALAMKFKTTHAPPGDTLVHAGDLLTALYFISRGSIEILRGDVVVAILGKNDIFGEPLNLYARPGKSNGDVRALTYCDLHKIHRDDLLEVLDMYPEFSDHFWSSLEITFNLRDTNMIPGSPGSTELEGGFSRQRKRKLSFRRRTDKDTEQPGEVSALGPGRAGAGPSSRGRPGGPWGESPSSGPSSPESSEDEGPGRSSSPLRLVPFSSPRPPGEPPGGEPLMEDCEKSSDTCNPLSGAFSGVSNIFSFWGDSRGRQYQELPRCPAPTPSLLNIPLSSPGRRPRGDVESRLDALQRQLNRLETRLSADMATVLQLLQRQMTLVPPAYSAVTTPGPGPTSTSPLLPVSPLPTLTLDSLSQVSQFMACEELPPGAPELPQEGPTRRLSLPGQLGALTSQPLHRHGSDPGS
outcome.measure: inhibition at 10 µM

Consider the compound shown here: `CN(c1ncnc2cc(-c3ccc(S(C)(=O)=O)cc3F)sc12)C1CCN(C(=O)OC(C)(C)C)CC1` What is its recorded inhibition at 10 µM?
13%

----------
system: HFL1; assay: Cytotoxicity against human HFL1 cells; assay type: cell-based
pIC50: −log10 of the molar value.
outcome.measure: pIC50

Entry `CN(c1ncnc2cc(-c3ccc(S(C)(=O)=O)cc3F)sc12)C1CCN(C(=O)OC(C)(C)C)CC1` : reported pIC50 = ?
< 4.00

----------
test system: L929; assay: Cytotoxicity against mouse L929 cells; type: cell-based
outcome.measure: IC50 (µM)
Give the value in µM but do not write µM after it.

So what's the measured IC50 for this one? `CN(c1ncnc2cc(-c3ccc(S(C)(=O)=O)cc3F)sc12)C1CCN(C(=O)OC(C)(C)C)CC1`
65.8

----------
biological target: Glucose-dependent insulinotropic receptor (Homo sapiens) (UniProt Q8TDV5); assay: Activation of human GPR119 expressed in CHO-K1 cells at 1 uM after 24 hrs by CRE-luciferase assay relative to GSK1292263; type: functional, cell-based
Sequence (Q8TDV5 whole entry): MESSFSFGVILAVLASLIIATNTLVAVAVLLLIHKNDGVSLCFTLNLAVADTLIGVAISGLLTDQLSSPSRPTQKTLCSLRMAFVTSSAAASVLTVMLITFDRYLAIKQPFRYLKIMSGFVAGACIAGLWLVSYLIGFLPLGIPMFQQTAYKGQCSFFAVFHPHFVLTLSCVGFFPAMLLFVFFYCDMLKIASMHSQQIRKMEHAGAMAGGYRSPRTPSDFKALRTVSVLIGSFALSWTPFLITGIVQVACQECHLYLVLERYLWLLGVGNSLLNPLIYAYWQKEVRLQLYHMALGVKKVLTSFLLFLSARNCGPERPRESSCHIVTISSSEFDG
Please assign -1 whenever Activity is at or above 60%, and 1 whenever it is below.

Observe how each entry below is paired with its result.
1. CN(c1ncnc2cc(-c3ccc(S(C)(=O)=O)cc3F)sc12)C1CCN(C(=O)OC(C)(C)C)CC1 -1
2. CC(C)(C)OC(=O)N1CCC(Oc2ncnc3cc(-c4ccc(S(C)(=O)=O)cc4)sc23)CC1 -1
3. CCc1cnc(N2CCC(Nc3ncnc4cc(-c5ccc(S(C)(=O)=O)cc5)sc34)CC2)nc1 1
4. CN(c1ncnc2cc(-c3ccc(S(C)(=O)=O)cc3F)sc12)C1CCN(C(=O)OC2(C)CC2)CC1 -1
5. CCc1cnc(N2CCC(Oc3ncnc4cc(-c5ccc(S(C)(=O)=O)cc5)sc34)CC2)nc1 -1
6. CC(C)NC(=O)N1CCC(N(C)c2ncnc3cc(-c4ccc(S(C)(=O)=O)cc4)sc23)CC1 1
7. CN(c1ncnc2cc(-c3ccc(S(C)(=O)=O)cc3)sc12)C1CCN(C(=O)C2CC2)CC1 -1
8. CC(C)OC(=O)N1CCC(N(C)c2ncnc3cc(-c4ccc(S(C)(=O)=O)cc4)sc23)CC1 -1
9. CN(c1ncnc2cc(-c3ccc(S(C)(=O)=O)cc3F)sc12)C1CCN(C(=O)C2CC2)CC1 -1
10. CCN(c1ncnc2cc(-c3ccc(S(C)(=O)=O)cc3F)sc12)C1CCN(C(=O)OC(C)(C)C)CC1 1

Strictly below 60%: is that where Activity of `CC(C)S(=O)(=O)N1CCC(N(C)c2ncnc3cc(-c4ccc(S(C)(=O)=O)cc4)sc23)CC1` sits?
-1

----------
biological target: Glucose-dependent insulinotropic receptor (Homo sapiens); experiment: Agonist activity at human GPR119 expressed in CHO-K1 cells after 24 hrs by CRE-luciferase assay
Sequence (Q8TDV5 whole entry): as above
outcome.measure: EC50 (nM)
A number alone suffices; assume nM.

Example cases with answers are listed next.
1) CC(C)OC(=O)N1CCC(N(C)c2ncnc3cc(-c4ccc(S(C)(=O)=O)cc4)sc23)CC1 82
2) CN(c1ncnc2cc(-c3ccc(S(C)(=O)=O)cc3)sc12)C1CCN(C(=O)C2CC2)CC1 173
3) CN(c1ncnc2cc(-c3ccc(S(C)(=O)=O)cc3F)sc12)C1CCN(C(=O)OC2(C)CC2)CC1 26

Can you share its EC50? I mean this molecule: `CC(C)(C)OC(=O)N1CCC(Oc2ncnc3cc(-c4ccc(S(C)(=O)=O)cc4)sc23)CC1`
100

Consider the molecule `CN(c1ncnc2cc(-c3ccc(S(C)(=O)=O)cc3F)sc12)C1CCN(C(=O)OC(C)(C)C)CC1` and give its measured EC50.
3

Any idea what its EC50 is? The molecule is `CCc1cnc(N2CCC(Oc3ncnc4cc(-c5ccc(S(C)(=O)=O)cc5)sc34)CC2)nc1`
240

Consider the molecule shown here: `CC(C)S(=O)(=O)N1CCC(N(C)c2ncnc3cc(-c4ccc(S(C)(=O)=O)cc4)sc23)CC1` What is its recorded EC50?
1200
